- target_entity: T1, recombinant human TIGIT (human, UniProt Q495A1 22-141, limits assumed)
- T1 construct: recombinant human TIGIT used in Carterra SPR; also called hTIGIT
- T1 sequence (looked up): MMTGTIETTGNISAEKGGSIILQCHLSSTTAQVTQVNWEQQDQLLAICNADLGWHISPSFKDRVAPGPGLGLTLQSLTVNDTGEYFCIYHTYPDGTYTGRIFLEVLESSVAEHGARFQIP
- test_name: SPR Carterra, average
- Procedure: Binding affinities of VHH-Fc proteins to recombinant human TIGIT were measured by SPR using a Carterra instrument (Table 10A). […] Average values reported from measurements from 1-2 samples.
measurement_name: koff (s⁻¹)

1. TIGIT-SC111 (Fc fusion, VHH-Fc fusion in assay) VHH: EVQLVESGGGLVQPGGSLRLSCAASGDTFSGGFMGWFRQAPGKEREWVASVLRGGYTWYADSVKGRFTISADNSKNTAYLQMNSLKPEDTAVYYCTRGGMDVWGQGTLVTVSS: 0.00743
2. TIGIT-SC110 (Fc fusion, VHH-Fc fusion in assay) VHH: EVQLVESGGGLVQPGGSLRLSCAASGNTFSGGFMGWFRQAPGKEREWVASVLRGGYTWYADSVKGRFTISADNSKNTAYLQMNSLKPEDTAVYYCARDHTAMVAPFDYWGQGTLVTVSS: 0.000765
